Target: Ba/F3-ETV6-NTRK3 (Homo sapiens)
Construct: Ba/F3 cells with TPM3-NTRK1 or ETV6-NTRK3 fusion mutation gene stably overexpressed named Ba/F3-TPM3-NTRK1 and Ba/F3-ETV6-NTRK3; fused on or other part: P41212 (Transcription factor ETV6)
Sequence (Q16288 whole entry, the tested form may be a part): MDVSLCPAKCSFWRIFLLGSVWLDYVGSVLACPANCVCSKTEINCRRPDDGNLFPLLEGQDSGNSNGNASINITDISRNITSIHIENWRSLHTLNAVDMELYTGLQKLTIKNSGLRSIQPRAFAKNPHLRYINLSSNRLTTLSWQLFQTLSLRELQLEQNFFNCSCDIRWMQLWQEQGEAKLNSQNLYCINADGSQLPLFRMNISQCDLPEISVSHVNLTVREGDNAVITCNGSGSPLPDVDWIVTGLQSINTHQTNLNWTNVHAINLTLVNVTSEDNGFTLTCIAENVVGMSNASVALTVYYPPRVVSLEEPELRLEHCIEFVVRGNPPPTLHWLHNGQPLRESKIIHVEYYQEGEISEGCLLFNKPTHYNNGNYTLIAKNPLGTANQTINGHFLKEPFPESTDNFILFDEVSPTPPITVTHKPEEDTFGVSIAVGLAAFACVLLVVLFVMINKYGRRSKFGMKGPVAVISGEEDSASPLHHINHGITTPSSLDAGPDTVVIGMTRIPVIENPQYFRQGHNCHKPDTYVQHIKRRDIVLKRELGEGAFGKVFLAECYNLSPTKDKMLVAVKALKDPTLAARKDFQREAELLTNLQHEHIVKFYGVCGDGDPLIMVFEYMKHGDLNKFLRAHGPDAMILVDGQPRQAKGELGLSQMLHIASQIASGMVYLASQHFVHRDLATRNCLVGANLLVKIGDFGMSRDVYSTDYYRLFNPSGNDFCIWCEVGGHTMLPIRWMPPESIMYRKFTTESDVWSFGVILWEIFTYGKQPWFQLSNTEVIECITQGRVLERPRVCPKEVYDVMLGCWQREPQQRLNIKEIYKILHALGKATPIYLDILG
Assay: Ba/F3-ETV6-NTRK3 cells proliferation assay
Settings: 72 h, CellTiter Glo
assayMetric: IC50 (nM)
Could you give me the number in nM? Just the number is fine.

CCOC(=O)c1nnc(-c2cnn3ccc(N4CCC[C@@H]4c4cc(F)ccc4F)nc23)[nH]1
4.21
CNC(=O)c1cc2nc(-c3cnn4ccc(N5CCC[C@@H]5c5cc(F)ccc5F)nc34)[nH]c2cc1OC
2.05
OC1CCC[C@H](c2nnc(-c3cnn4ccc(N5CCC[C@@H]5c5cc(F)ccc5F)nc34)[nH]2)C1 (stereo partly shown)
2.83

Task: Assign IC50 to the following record: Fc1ccc(F)c([C@H]2CCCN2c2ccn3ncc(-c4nnc(-c5ccncc5)[nH]4)c3n2)c1
Result: 1.55

###

Collected microsomal CLint at 2 μM values appear next to each entry.
Test: Liver microsomes metabolic stability assay, rat
Format: in vitro ADME
Conditions: male, rat liver microsomes 0.5 mg/mL, 37° C.

Take a look at these entries with their results.
C[S+]([O-])c1cc2nc(-c3cnn4ccc(N5CCC[C@@H]5c5cc(F)ccc5F)nc34)[nH]c2cc1C#N (stereo partly drawn)
58.2 µL/min/mg
Fc1ccc(F)c([C@H]2CCCN2c2ccn3ncc(-c4nc5cc6c(cc5[nH]4)OCCO6)c3n2)c1
29.4 µL/min/mg
N#Cc1cc2[nH]c(-c3cnn4ccc(N5CCC[C@@H]5c5cc(F)ccc5F)nc34)nc2cc1F
60.8 µL/min/mg
Fc1ccc(F)c([C@H]2CCCN2c2ccn3ncc(-c4nc5ccc(OC(F)(F)F)cc5o4)c3n2)c1
7 µL/min/mg
Fc1ccc(F)c([C@H]2CCCN2c2ccn3ncc(-c4nc5cc6c(cc5[nH]4)OC(F)(F)O6)c3n2)c1
10.8 µL/min/mg

Now consider a different compound.
Task: Name the recorded microsomal CLint at 2 μM of the item CS(=O)(=O)c1cc2nc(-c3cnn4ccc(N5CCC[C@@H]5c5cc(F)ccc5F)nc34)[nH]c2cc1C#N in your answer.
Result: 44.8 µL/min/mg

###

Molecular target: TrkA kinase (Homo sapiens, UniProt P04629)
Sequence (P04629 33-796): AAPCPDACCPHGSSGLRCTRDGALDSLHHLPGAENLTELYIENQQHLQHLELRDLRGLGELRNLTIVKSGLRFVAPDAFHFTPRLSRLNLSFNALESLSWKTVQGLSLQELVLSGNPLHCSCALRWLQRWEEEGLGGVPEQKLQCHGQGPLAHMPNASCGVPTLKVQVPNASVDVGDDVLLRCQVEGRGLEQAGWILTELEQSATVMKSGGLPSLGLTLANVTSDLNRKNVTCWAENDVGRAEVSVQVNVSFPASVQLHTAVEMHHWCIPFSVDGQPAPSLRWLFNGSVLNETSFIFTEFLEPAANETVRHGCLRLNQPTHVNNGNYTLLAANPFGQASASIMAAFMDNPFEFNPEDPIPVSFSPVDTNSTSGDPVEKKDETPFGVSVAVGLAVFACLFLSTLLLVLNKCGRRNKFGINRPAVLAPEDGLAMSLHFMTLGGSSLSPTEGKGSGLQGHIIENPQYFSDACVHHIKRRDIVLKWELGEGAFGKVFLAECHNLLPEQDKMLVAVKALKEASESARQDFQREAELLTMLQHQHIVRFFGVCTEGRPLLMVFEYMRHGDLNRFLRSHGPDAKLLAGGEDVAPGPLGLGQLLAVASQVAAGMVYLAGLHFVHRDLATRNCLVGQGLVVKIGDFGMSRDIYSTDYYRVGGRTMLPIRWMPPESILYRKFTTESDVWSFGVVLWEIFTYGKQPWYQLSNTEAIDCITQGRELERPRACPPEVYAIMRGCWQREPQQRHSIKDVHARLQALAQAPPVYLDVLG
Assay: TrkA kinase assay (mobility shift assay)
Format: biochemical
Conditions: numeric values; read-out: Trk A Kinase IC50
# pIC50 per entry
For clarity, pIC50 is expressed as the negative log10 of concentration in mol/L.

COc1cccc2oc(-c3cnn4ccc(N5CCC[C@@H]5c5cc(F)ccc5F)nc34)nc12 [Compound 100]
9.00

Task: Complete the entry with pIC50 for C[S+]([O-])c1cc2nc(-c3cnn4ccc(N5CCC[C@@H]5c5cc(F)ccc5F)nc34)[nH]c2cc1C#N (stereo partly drawn) [Compound 171]
Result: 9.00

Task: Could you please provide reported pIC50 for C[C@@H](O)c1nnc(-c2cnn3ccc(N4CCC[C@@H]4c4cc(F)ccc4F)nc23)[nH]1 [Compound 34] ? Thanks!
Result: 9.15

###

Molecular target: TrkA kinase (Homo sapiens, UniProt P04629)
Assay: TrkA kinase assay (mobility shift assay)
Type: biochemical
Conditions: numeric values; read-out: Trk A Kinase IC50
Some compounds, each annotated with its measured IC50.
Reply numerically in nM, unit not repeated.

// below: answered compounds
N#Cc1cc2nc(-c3cnn4ccc(N5CCC[C@@H]5c5cc(F)ccc5F)nc34)oc2cc1O [Compound 177]
1.2
CC(C)(O)c1nnc(-c2cnn3ccc(N4CCC[C@@H]4c4cc(F)ccc4F)nc23)[nH]1 [Compound 7]
0.68
O[C@H]1CC[C@@H](c2nnc(-c3cnn4ccc(N5CCC[C@@H]5c5cc(F)ccc5F)nc34)[nH]2)CC1 [Compound 5]
1.8

// next entry
Task: Indicate its recorded IC50; the compound in question is COc1cc2nc(-c3cnn4ccc(N5CCC[C@@H]5c5cc(F)ccc5F)nc34)[nH]c2cc1OC [Compound 78]
Result: 0.73

###

Assay: Plasma protein binding (equilibrium dialysis), mouse
Type: in vitro ADME
Settings: pH 7.4, 6 hours dialysis, read-out: Mean % Bound Mouse (converted)
Attribute: fraction unbound at 6 h, 1 μM
The answer should be written as a number, with no unit following it.

Task: Look up fraction unbound at 6 h, 1 μM of C[C@@H](CO)c1nnc(-c2cnn3ccc(N4CCC[C@@H]4c4cc(F)ccc4F)nc23)[nH]1 and report it.
Result: 0.0676

Task: Look up and report measured fraction unbound at 6 h, 1 μM for this entry: Cc1nnc(-c2cnn3ccc(N4CCCC4c4cc(F)ccc4F)nc23)[nH]1 (stereo not drawn) [Comparative compound A, reference compound]
Result: 0.0488

Task: Name the recorded fraction unbound at 6 h, 1 μM of the item C[C@@H](O)c1nnc(-c2cnn3ccc(N4CCC[C@@H]4c4cc(F)ccc4F)nc23)[nH]1 in your answer.
Result: 0.0918

###

Assay: Liver microsomes metabolic stability assay, rat
Format: in vitro ADME
Settings: male, rat liver microsomes 0.5 mg/mL, 37° C., read-out: t1/2 Rat
# half-life at 2 μM values compiled below
Entry format: amount then unit.

In the examples that follow, each entry is paired with its recorded half-life at 2 μM.
CS(=O)(=O)c1cc2nc(-c3cnn4ccc(N5CCC[C@@H]5c5cc(F)ccc5F)nc34)[nH]c2cc1C#N
30.9 min
C[C@H](O)c1nnc(-c2cnn3ccc(N4CCC[C@@H]4c4cc(F)ccc4F)nc23)[nH]1
47.3 min

Now examine the next entry.
Task: Give me measured half-life at 2 μM, please, for this compound: C[C@@](O)(c1nnc(-c2cnn3ccc(N4CCC[C@@H]4c4cc(F)ccc4F)nc23)[nH]1)C(F)(F)F
Result: 34.2 min

###

# IC50 listing for each entry below
Biological target: NTRK1-G595R (Homo sapiens, UniProt P04629, G595R)
Sequence (P04629 33-796 G595R): as the sequence (P04629 33-796) above, with G563R counted along it
Test: NTRK1-G595R cell proliferation assay (Table 13)
Write the answer as a number in nM, unit excluded.

CS(=O)(=O)c1cc2nc(-c3cnn4ccc(N5CCC[C@@H]5c5cc(F)ccc5F)nc34)[nH]c2cc1C(N)=O
89.8
CSc1cc2nc(-c3cnn4ccc(N5CCC[C@@H]5c5cc(F)ccc5F)nc34)[nH]c2cc1C#N
106
N#Cc1cc2[nH]c(-c3cnn4ccc(N5CCC[C@@H]5c5cc(F)ccc5F)nc34)nc2cc1F
117

Now for a further compound.
Task: Tell me its IC50 on NTRK1-G595R (Homo sapiens, UniProt P04629, G595R): CC(C)(O)c1nnc(-c2cnn3ccc(N4CCC[C@@H]4c4cc(F)ccc4F)nc23)[nH]1
Result: 107
